- ASSAY TARGET: Human recombinant liver glycogen phosphorylase α (hrl GPα) (Homo sapiens, UniProt P06737)
- Sequence (P06737 1-847): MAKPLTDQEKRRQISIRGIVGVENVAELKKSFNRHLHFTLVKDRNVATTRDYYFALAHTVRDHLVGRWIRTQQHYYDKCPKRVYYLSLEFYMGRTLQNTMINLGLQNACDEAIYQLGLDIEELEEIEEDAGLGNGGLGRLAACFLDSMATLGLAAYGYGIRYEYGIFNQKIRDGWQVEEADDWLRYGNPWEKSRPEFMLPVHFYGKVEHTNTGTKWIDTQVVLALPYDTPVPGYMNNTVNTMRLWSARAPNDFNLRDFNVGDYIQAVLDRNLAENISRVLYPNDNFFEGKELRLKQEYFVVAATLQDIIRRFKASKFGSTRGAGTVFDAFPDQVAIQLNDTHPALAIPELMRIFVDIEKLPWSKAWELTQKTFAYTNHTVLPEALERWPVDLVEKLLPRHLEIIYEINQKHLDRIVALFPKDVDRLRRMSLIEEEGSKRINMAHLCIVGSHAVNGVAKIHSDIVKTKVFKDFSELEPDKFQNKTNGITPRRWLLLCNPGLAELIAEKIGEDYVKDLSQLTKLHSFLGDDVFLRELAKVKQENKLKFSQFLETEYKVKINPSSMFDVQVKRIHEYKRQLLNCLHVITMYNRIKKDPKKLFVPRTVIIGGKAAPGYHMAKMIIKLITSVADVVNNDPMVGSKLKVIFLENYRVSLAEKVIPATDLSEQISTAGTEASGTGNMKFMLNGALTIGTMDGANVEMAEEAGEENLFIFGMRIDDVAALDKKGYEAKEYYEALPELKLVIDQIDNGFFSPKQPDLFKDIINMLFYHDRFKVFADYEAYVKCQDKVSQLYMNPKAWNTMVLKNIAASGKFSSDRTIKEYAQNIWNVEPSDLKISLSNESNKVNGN
- TEST METHOD NOTES: Glycogen phosphorylase inhibition of glycogen degradation (multienzyme coupled assay, NADH fluorescence)
- MEASUREMENT CONTEXT: glycogen degradation direction
pIC50: −log10 of the molar value.
MEASURED ATTRIBUTE: pIC50

structure_string=O=C(CN(CCO)Cc1ccccc1)N[C@@H]1c2ccccc2C[C@H]1NC(=O)c1cc2cc(Cl)ccc2[nH]1 measured_attribute=pIC50 experimental_result=5.13
